test system: genomic salmon testes DNA; assay: DNA intercalation assay; type: binding; settings: 5 and 25 μg/ml
Measurement type: DNA intercalation (in words)

NC1=C(Cl)C(=O)c2c(C(O)CO)c[nH]c2C1=O (centres unmarked) = no DNA intercalation
CSc1c2c3c(n1C)C(=O)C(=O)C(Cl)=C3NCC2 = no DNA intercalation

====

I'd be grateful if you could share measured IC50 for these entries.
tested on: AsPC-1; test: Cell viability assay; assay type: cell-based, human; conditions: read-out: IC50 (μM) AsPC-1; MTT, 72 hours, n=4 ± SE
All answers are understood in µM, so give the number only.

[in] Record CSc1c2ccnc3c2c(n1C)C(=O)C(N)=C3Cl : what is its IC50 with AsPC-1?
[out] 1.48

[in] Record CSc1c2c3c(n1C)C(=O)C(N)=C(Cl)C3=NCC2 : what is its IC50 with AsPC-1?
[out] 1.74

====

I'd be grateful if you could share measured inhibition at 25 µg/mL for these entries.
biological target: topoisomerase II (Homo sapiens); assay: Decatenation reaction of kinetoplast DNA; type: biochemical; settings: read-out: % Inhibition topoisomeraseII
All answers are understood in %, so give the number only.

[in] For the compound N=C1C(Cl)=C(N)C(=O)c2[nH]cc(C(O)CO)c21 (stereo not shown) [Secobatzelline A] , what inhibition at 25 µg/mL is on record?
[out] 61

[in] For the compound Cn1cc2c3c1C(=O)C(N)=C(Cl)C3=NCC2 [Isobatzelline C] , what inhibition at 25 µg/mL is on record?
[out] 27

[in] For the compound NC1=C(Cl)C(=O)c2c(C(O)CO)c[nH]c2C1=O (stereo not shown) [Secobatzelline B] , what inhibition at 25 µg/mL is on record?
[out] 13

[in] For the compound CSc1c2c3c(n1C)C(=O)C(=O)C(Cl)=C3NCC2 [Batzelline A] , what inhibition at 25 µg/mL is on record?
[out] 58

====

I'd be grateful if you could share measured % DNA intercalation for these entries.
test system: genomic salmon testes DNA; assay: DNA intercalation assay; type: binding; settings: 25 μg/ml; ethidium bromide displacement
All answers are understood in %, so give the number only.

[in] For the molecule CSc1c2c3c(n1C)C(=O)C(=O)C(Cl)=C3NCC2 , what % DNA intercalation is on record?
[out] 18

[in] For the molecule CSC1=Nc2c(O)c(O)c(Cl)c3c2=C1CCN=3 , what % DNA intercalation is on record?
[out] 21

====

target: topoisomerase II (Homo sapiens, UniProt P11388); test: Decatenation reaction of kinetoplast DNA; format: biochemical; settings: 25 μg/ml; decatenation of kinetoplast DNA, 30 minutes
Sequence (P11388 whole entry): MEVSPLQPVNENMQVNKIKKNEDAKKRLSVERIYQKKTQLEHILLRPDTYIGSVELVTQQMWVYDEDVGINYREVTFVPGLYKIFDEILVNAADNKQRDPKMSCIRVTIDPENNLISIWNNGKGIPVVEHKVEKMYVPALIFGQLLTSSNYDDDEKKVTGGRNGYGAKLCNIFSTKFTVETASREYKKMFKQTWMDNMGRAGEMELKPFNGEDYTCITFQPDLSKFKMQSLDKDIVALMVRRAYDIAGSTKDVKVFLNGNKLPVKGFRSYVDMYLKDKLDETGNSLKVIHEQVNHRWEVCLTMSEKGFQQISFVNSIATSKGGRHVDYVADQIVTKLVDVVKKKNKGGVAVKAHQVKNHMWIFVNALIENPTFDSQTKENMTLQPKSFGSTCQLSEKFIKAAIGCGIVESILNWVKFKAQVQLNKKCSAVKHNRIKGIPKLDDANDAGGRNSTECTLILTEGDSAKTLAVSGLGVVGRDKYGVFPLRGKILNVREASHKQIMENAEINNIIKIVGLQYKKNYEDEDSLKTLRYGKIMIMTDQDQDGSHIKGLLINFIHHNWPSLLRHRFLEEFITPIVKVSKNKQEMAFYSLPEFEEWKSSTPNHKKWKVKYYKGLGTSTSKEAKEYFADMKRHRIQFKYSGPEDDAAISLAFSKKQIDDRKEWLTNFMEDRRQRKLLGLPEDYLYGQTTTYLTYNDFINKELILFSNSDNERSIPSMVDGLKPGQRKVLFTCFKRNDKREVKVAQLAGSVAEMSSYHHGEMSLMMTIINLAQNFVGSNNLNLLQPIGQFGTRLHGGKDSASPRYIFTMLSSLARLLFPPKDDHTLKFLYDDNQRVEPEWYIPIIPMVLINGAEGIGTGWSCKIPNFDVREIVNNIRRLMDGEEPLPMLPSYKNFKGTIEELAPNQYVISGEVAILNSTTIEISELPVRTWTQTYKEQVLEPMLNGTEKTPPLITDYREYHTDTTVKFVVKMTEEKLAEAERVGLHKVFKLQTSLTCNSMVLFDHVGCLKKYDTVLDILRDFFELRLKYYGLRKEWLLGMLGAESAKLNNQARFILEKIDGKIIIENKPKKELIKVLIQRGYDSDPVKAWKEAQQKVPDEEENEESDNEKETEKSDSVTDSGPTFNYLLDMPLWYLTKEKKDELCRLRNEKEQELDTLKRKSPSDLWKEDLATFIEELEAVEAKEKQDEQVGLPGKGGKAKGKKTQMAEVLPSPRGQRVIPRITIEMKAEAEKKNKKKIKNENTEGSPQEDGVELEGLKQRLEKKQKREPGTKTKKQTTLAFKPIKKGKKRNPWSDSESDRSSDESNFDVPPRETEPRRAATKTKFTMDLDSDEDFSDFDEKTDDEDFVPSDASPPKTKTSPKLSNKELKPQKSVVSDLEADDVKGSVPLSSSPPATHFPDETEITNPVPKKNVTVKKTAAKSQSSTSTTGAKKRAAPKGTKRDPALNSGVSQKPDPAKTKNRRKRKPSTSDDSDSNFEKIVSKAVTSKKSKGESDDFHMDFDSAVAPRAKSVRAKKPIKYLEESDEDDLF
Marks after values point to notes of the source that are not given here.
Measurement type: % Inhibition topoisomeraseII

[in] For the compound CSc1c2c3c(n1C)C(=O)C(N)=C(Cl)C3=NCC2 , what % Inhibition topoisomeraseII is on record?
[out] 36 ^* %

[in] For the compound CSC1=Nc2c(O)c(O)c(Cl)c3c2=C1CCN=3 , what % Inhibition topoisomeraseII is on record?
[out] 63 ^* %

[in] For the compound Cn1cc2ccnc3c2c1C(=O)C(N)=C3Cl , what % Inhibition topoisomeraseII is on record?
[out] 95 ^* %

[in] For the compound CSc1c2ccnc3c2c(n1C)C(=O)C(N)=C3Cl , what % Inhibition topoisomeraseII is on record?
[out] 26%
